- target-entity: T1, human angiopoietin-2 (human, UniProt O15123 19-496, limits assumed)
- T1 construct: Bought recombinant protein with a His tag (detected by anti-HIS-tag antibody); also called human Ang-2; hAng-2
- T1 sequence (looked up): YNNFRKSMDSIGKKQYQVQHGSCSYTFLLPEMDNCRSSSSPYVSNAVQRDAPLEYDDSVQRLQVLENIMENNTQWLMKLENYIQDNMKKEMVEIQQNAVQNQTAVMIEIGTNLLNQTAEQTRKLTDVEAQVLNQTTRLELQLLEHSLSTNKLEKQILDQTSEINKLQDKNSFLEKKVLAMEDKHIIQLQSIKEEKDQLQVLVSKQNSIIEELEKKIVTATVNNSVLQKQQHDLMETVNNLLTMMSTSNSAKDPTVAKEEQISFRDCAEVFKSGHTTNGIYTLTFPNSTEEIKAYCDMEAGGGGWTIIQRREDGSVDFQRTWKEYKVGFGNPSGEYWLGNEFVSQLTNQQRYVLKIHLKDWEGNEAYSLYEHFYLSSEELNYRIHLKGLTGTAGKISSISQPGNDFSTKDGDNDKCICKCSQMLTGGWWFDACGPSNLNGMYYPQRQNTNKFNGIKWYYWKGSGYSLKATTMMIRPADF
- protocol-notes: ELISA; Ang-2 coated, mutein detected by anti-Streptag-HRP
measurement-type: EC50 (nM)
Kindly provide the numeric value in nM only, without the unit symbol.

For the binder hNGAL lipocalin mutein SEQ ID NO: 9 (designed binder, Mutein of mature hNGAL; Biotinylated with NHS-PEG4-Biotin for the SPR assay) QDSTSDLIPAPPLSKVPLQQNFQDNQFHGKWYVVGHAGNYILREDKDPGKMWATIYELKEDKSYDVTEVSFGPKKCNYRIWTFVPGSQPGEFTLGGIKSPPGGTSTLVRVVSTNYNQHAMVFFKHVLQNREFFEITLYGRTKELTSELKENFIRFSKSLGLPENHIVFPVPIDQCIDGSAWSHPQFEK , what EC50 is on record?
2.1
